- Method: gradient 5% acetonitrile 3 min, to 50% in 2 min, to 85% in 15 min, held 3 min, 100 µL/min
- Test settings: column: Zorbax Extend-C18 2.1 x 50 mm; eluents: water / acetonitrile, 0.1% formic acid
Parameter measured: RP-LC retention time (s)

The examples below pair each entry with its known result.
O=C(O)C1=CCCN(CCON=C(c2ccccc2)c2ccccc2)C1 :: 766
O=C(c1ccccc1Sc1nccnc1Oc1ccccc1)N1CCN(c2ccccn2)CC1 :: 691
COc1ccc(S(=O)(=O)N2CCC(c3noc(-c4cccnc4)n3)C2)cc1 (centres undefined) :: 793
COCCn1c(C(CNc2cccc(C)c2)CC(=O)O)nc2ccccc21 (centres undefined) :: 620

A = Cc1ccc(-c2nc(-c3ccc4c(c3)nnn4CCC(=O)N3CCCC3)no2)c(C)c1
B = O=C(Nc1ccccc1F)C1CC(=O)N(c2ccc3c(c2)CCN3C(=O)C2CC2)C1 (centres undefined)
// query Returns: the label, A or B , whose recorded RP-LC retention time is the lower number. Selection: enter the item's label.
// result B

----------
- Method: gradient 5% acetonitrile 3 min, to 50% in 2 min, to 85% in 15 min, held 3 min, 100 µL/min
- Test settings: column: Zorbax Extend-C18 2.1 x 50 mm; eluents: water / acetonitrile, 0.1% formic acid
Parameter measured: RP-LC retention time (s)

A = COc1cc(NC(=O)Cn2c(C)cc(-c3nnc(C4CC4)o3)c2C)cc(OC)c1
B = O=C(Nc1ccccc1F)c1c(O)c2cccnc2n(-c2ccc(F)cc2)c1=O
// query // compare measured RP-LC retention time, left A , right B , return larger Selection: enter the item's label.
// result B

----------
- Method: gradient 5% acetonitrile 3 min, to 50% in 2 min, to 85% in 15 min, held 3 min, 100 µL/min
- Test settings: column: Zorbax Extend-C18 2.1 x 50 mm; eluents: water / acetonitrile, 0.1% formic acid
Parameter measured: RP-LC retention time (s)

CC(C)NC(=O)c1nc(N2CCSCC2)c2cnn(C)c2n1 :: 705
CN(C)c1ncccc1C(=O)Nc1ccccc1Cl :: 716
Cc1cccc(-c2nc(C3CCN(S(=O)(=O)c4cccc(F)c4)CC3)no2)c1 :: 1170
Cc1nc(-c2cnccn2)nc2c1CCC(=O)N2Cc1ccco1 :: 683

P = CCc1ccc(CNC(=O)C2CCCN(c3nc4c(s3)c(C)nn4-c3ccc(F)cc3)C2)cc1 (stereo unspecified)
Q = COc1ccccc1CNC(=O)Cn1c(N)nc(C)cc1=O
// query // compare measured RP-LC retention time, left P , right Q , return larger Selection: enter the item's label.
// result P
(P: 1240 s, Q: 574 s)

----------
- Method: gradient 5% acetonitrile 3 min, to 50% in 2 min, to 85% in 15 min, held 3 min, 100 µL/min
- Test settings: column: Zorbax Extend-C18 2.1 x 50 mm; eluents: water / acetonitrile, 0.1% formic acid
Parameter measured: RP-LC retention time (s)

Cc1ccc(C(=O)NCc2nc(-c3ccc4c(c3)oc(=O)n4C(C)C)no2)cc1 :: 871
COc1cccc(-c2cc(C(N)=O)c3ccccc3n2)c1 :: 760
O=S(=O)(NCCC1=CCCCC1)c1ccc(-c2cc(C(F)(F)F)on2)o1 :: 1240
Cn1c(=O)sc2cc(S(=O)(=O)N3CCC(C(=O)NCc4ccccn4)CC3)ccc21 :: 611
COc1ccc(OC)c(S(=O)(=O)N2CCn3c(nn(CC4CC4)c3=O)C2)c1 :: 734

A = O=C(NCc1ccccc1F)C1CCCN(c2nc3ccccc3n(Cc3ccccc3)c2=O)C1 (centres undefined)
B = CCN1CCCCc2cc(C(=O)NCCN3CCCCC3C)sc21 (centres undefined)
// query Returns: the label, A or B , whose recorded RP-LC retention time is the lower number. Selection: enter the item's label.
// result B
(B: 698 s, A: 1150 s)

----------
- Method: gradient 5% acetonitrile 3 min, to 50% in 2 min, to 85% in 15 min, held 3 min, 100 µL/min
- Test settings: column: Zorbax Extend-C18 2.1 x 50 mm; eluents: water / acetonitrile, 0.1% formic acid
Parameter measured: RP-LC retention time (s)

Cc1ccc(Oc2nccnc2SCC(=O)Nc2ccc(C)c(C)c2)cc1 :: 1140
CC(=O)N1CCc2cc(-c3ccc(C(=O)NCCCN4CCCC4=O)cc3)ccc21 :: 672
CCn1c(=O)sc2cc(S(=O)(=O)N3CCC(C(=O)N4CCC5(CC4)OCCO5)CC3)ccc21 :: 781
CSc1nsc(NN)n1 :: 647
CCN1c2ccc(C)cc2C(=O)NC12CCN(C(=O)c1ccc(OC)cc1)CC2 :: 810

a = N#Cc1ccccc1CN1CCC(N2CC(OCC3CC3)C23CCCCC3)CC1 (centres undefined)
b = Cc1ccc(-c2noc(-c3cccc(S(=O)(=O)NCc4ccc(C)o4)c3)n2)cc1
// query // compare measured RP-LC retention time, left a , right b , return larger Selection: enter the item's label.
// result b

P = Cc1oc2ccn(Cc3ccccc3F)c(=O)c2c1C(=O)NCc1ccccc1
Q = O=C(NCCc1ccccn1)C1CC(=O)N(c2n[nH]c3cc(Br)ccc23)C1 (centres undefined)
// query Returns: the label, P or Q , whose recorded RP-LC retention time is the lower number. Selection: enter the item's label.
// result Q

1 = CN1CCN(c2c(F)cc(C(=O)Nc3nc(-c4ccccc4)cs3)c(F)c2F)CC1
2 = O=C(CSc1cc(N2CCN(c3ccccc3F)CC2)ncn1)NCc1ccccc1
// query // compare measured RP-LC retention time, left 1 , right 2 , return larger Selection: enter the item's label.
// result 2

I = C=CCn1c(C)c(CC(=O)NC(C)CC)c(=O)n2nc(-c3ccc(C)cc3)nc12 (centres undefined)
II = Cc1cc(C)cc(NS(=O)(=O)c2cc(-c3cc(C(F)(F)F)on3)sc2C)c1
// query Returns: the label, I or II , whose recorded RP-LC retention time is the lower number. Selection: enter the item's label.
// result I

a = CS(=O)(=O)N1CCC(CNC(=O)c2cc(-c3ccccc3)on2)CC1
b = O=S(=O)(Cc1c(F)cccc1Cl)N1CCc2nc(-c3ccc(F)cc3)ncc2C1
// query Returns: the label, a or b , whose recorded RP-LC retention time is the lower number. Selection: enter the item's label.
// result a

1 = CCCN1C(=O)c2c(C(=O)NCc3ccc(Cl)cc3)ncn2CC1(C)C(=O)NCCC(C)C (centres undefined)
2 = Cc1ccc(C)c(NC(=O)N2CCN(CCn3cnc4cccnc43)CC2)c1
// query Returns: the label, 1 or 2 , whose recorded RP-LC retention time is the lower number. Selection: enter the item's label.
// result 2
(2: 596 s, 1: 868 s)

I = COc1ccc(-c2cnc(SCC(=O)Nc3cc(C)on3)n2Cc2ccco2)cc1
II = Cc1ccc(S(=O)(=O)N2C(=O)CCC2C(=O)NC2CCCCCC2)cc1C (centres undefined)
// query // compare measured RP-LC retention time, left I , right II , return larger Selection: enter the item's label.
// result II

I = Cc1nc(-c2ccc(N3CCN(C(=O)Nc4ccc(F)cc4)CC3)cc2)no1
II = CCOC(=O)c1cc(C2CC2)nc2c1c(=O)n(Cc1cccc(Br)c1)c(=O)n2C
// query // compare measured RP-LC retention time, left I , right II , return larger Selection: enter the item's label.
// result II
(II: 1280 s, I: 787 s)

----------
- Method: gradient 5% acetonitrile 3 min, to 50% in 2 min, to 85% in 15 min, held 3 min, 100 µL/min
- Test settings: column: Zorbax Extend-C18 2.1 x 50 mm; eluents: water / acetonitrile, 0.1% formic acid
Parameter measured: RP-LC retention time (s)

The examples below pair each entry with its known result.
O=C(Nc1ccc2ccccc2c1)c1cccc(F)c1 :: 1060
Cc1cccc(C(C)C)c1NC(=O)C1CCN(S(C)(=O)=O)c2ccccc2O1 (stereo not given) :: 957
O=C(CNC(=O)c1ccccc1)NC(C(=O)N1CCCc2ccccc21)c1ccccc1 (stereo not given) :: 816

1 = O=S(=O)(c1cccc(F)c1)N1CC(c2nc(CCOCC3CCOCC3)no2)C1
2 = COc1ccc(Cl)cc1NC(=O)N1CCCC(C)(C(=O)NCc2ccccc2)C1 (stereo not given)
// query // compare measured RP-LC retention time, left 1 , right 2 , return larger Selection: enter the item's label.
// result 2
(2: 998 s, 1: 686 s)

----------
- Method: gradient 5% acetonitrile 3 min, to 50% in 2 min, to 85% in 15 min, held 3 min, 100 µL/min
- Test settings: column: Zorbax Extend-C18 2.1 x 50 mm; eluents: water / acetonitrile, 0.1% formic acid
Parameter measured: RP-LC retention time (s)

The examples below pair each entry with its known result.
O=C(C1CCN(c2cncnc2N2CCOCC2)CC1)N1CCOCC1 :: 556
CCn1c(=O)sc2cc(S(=O)(=O)N3CCC(C(=O)NCCC4=CCCCC4)CC3)ccc21 :: 958
c1ccc(-c2nnc(-c3nc(NCCc4cccs4)c4ccccc4n3)o2)cc1 :: 1040

I = Cc1oc(C2CCN(S(=O)(=O)c3ccc(C#N)cc3)CC2)nc1C(=O)N(C)C
II = CCOc1ccccc1-c1noc(-c2nnn(Cc3nc(-c4cccc(C)c4)oc3C)c2C)n1
// query Returns: the label, I or II , whose recorded RP-LC retention time is the lower number. Selection: enter the item's label.
// result I
(I: 762 s, II: 1260 s)

1 = Cc1nn(-c2cc(N3CCCC3)ncn2)c(C)c1CCC(=O)NCCc1ccco1
2 = O=c1c2sccc2n(Cc2nc(-c3ccc(Cl)c(F)c3)no2)c(=O)n1-c1cccc(F)c1
// query Returns: the label, 1 or 2 , whose recorded RP-LC retention time is the lower number. Selection: enter the item's label.
// result 1
